Tested on: NOMO1
assay-summary: cell viability relative to DMSO control; higher = less cytotoxic
experimental-conditions: HPLM + 10% dialyzed FBS; 48 h; 5.12 µM
Please provide measured cell viability for the entries that follow.
Express it in %; write the number only.

What reported cell viability corresponds to O=C(O)C1=NC(C(=O)O)CC(/C=C/N2c3cc(O)c(OC4OC(CO)C(O)C(O)C4O)cc3CC2C(=O)O)=C1 (stereo not drawn) on NOMO1? 98.7

FC(F)c1nc2ccccc2n1-c1nc(N2CCOCC2)nc(N2CCOCC2)n1 ? 41.5

Try this compound next: CN[C@@H]1[C@H](O)[C@H](NC)[C@H]2O[C@@]3(O)C(=O)C[C@@H](C)O[C@H]3O[C@@H]2[C@H]1O 103
